Assay: Thermodynamic solubility in pH 7 pION buffer at 500 uM incubated for 18 hrs by UV-spectrophotometry
Format: physicochemical
Conditions: read-out: Therm_solubility

COMPOUND STRUCTURE STRING: CN1CCN(Cc2ccc(NC(=O)CNc3ccc(-c4ccc(NC(=O)C5CC5)nc4)cc3F)cc2C(F)(F)F)CC1
solubility thermodynamic at 18 h, 500 µM [µg/mL]: 3.8

COMPOUND STRUCTURE STRING: CCN1CCN(Cc2ccc(NC(=O)CNc3ccc(-c4ccc(NC(=O)C5CC5)nc4)cc3)cc2C(F)(F)F)CC1
solubility thermodynamic at 18 h, 500 µM [µg/mL]: 0.1

COMPOUND STRUCTURE STRING: CCN1CCN(Cc2ccc(NC(=O)CNc3ccc(-c4ccc(NC(C)=O)nc4)cc3)cc2C(F)(F)F)CC1
solubility thermodynamic at 18 h, 500 µM [µg/mL]: 0.6

====

These records show IC50 for MAP kinase-interacting serine/threonine-protein kinase 2 (Homo sapiens).

COMPOUND STRUCTURE STRING: CCN1CCN(Cc2ccc(NC(=O)CNc3ccc(-c4cccnc4)cc3)cc2C(F)(F)F)CC1
IC50, nM: 11

COMPOUND STRUCTURE STRING: CCN1CCN(Cc2ccc(NC(=O)COc3ccc(-c4ccc(C(=O)NC)nc4)cc3)cc2C(F)(F)F)CC1
IC50, nM: 6860

COMPOUND STRUCTURE STRING: CCN1CCN(Cc2ccc(NC(=O)CNc3ccc(-c4ccc(NC(C)=O)nc4)cc3)cc2C(F)(F)F)CC1
IC50, nM: 44

COMPOUND STRUCTURE STRING: CCN1CCN(Cc2ccc(CC(=O)Nc3ccc(Oc4cc(NC)ncn4)cc3)cc2C(F)(F)F)CC1
IC50, nM: 760

COMPOUND STRUCTURE STRING: CN1CCN(Cc2ccc(NC(=O)CNc3ccc(-c4ccc(NC(=O)C5CC5)nc4)cc3F)cc2C(F)(F)F)CC1
IC50, nM: 10

COMPOUND STRUCTURE STRING: CC(C)C(=O)Nc1ccc(-c2ccc(NCC(=O)Nc3ccc(CN4CCNCC4)c(C(F)(F)F)c3)cc2)cn1
IC50, nM: 130

COMPOUND STRUCTURE STRING: O=C(COc1ccc(-c2cccnc2)cc1)Nc1ccc(CN2CCNCC2)c(C(F)(F)F)c1
IC50, nM: 12

COMPOUND STRUCTURE STRING: CCN1CCN(Cc2ccc(NC(=O)COc3ccc(-c4ccc(NC(C)=O)nc4)cc3)cc2C(F)(F)F)CC1
IC50, nM: 33

COMPOUND STRUCTURE STRING: O=C(CNc1ccc(-c2ccc(NC(=O)C3CC3)nc2)cc1)Nc1ccc(CN2CCNCC2)c(C(F)(F)F)c1
IC50, nM: 8

COMPOUND STRUCTURE STRING: CC(=O)Nc1ccc(-c2ccc(NCC(=O)Nc3ccc(CN4CCNCC4)c(C(F)(F)F)c3)cc2)cn1
IC50, nM: 32

====

Biological target: Bcr/Abl fusion protein (Homo sapiens)
Sequence (P00519 whole entry, the tested form may be a part): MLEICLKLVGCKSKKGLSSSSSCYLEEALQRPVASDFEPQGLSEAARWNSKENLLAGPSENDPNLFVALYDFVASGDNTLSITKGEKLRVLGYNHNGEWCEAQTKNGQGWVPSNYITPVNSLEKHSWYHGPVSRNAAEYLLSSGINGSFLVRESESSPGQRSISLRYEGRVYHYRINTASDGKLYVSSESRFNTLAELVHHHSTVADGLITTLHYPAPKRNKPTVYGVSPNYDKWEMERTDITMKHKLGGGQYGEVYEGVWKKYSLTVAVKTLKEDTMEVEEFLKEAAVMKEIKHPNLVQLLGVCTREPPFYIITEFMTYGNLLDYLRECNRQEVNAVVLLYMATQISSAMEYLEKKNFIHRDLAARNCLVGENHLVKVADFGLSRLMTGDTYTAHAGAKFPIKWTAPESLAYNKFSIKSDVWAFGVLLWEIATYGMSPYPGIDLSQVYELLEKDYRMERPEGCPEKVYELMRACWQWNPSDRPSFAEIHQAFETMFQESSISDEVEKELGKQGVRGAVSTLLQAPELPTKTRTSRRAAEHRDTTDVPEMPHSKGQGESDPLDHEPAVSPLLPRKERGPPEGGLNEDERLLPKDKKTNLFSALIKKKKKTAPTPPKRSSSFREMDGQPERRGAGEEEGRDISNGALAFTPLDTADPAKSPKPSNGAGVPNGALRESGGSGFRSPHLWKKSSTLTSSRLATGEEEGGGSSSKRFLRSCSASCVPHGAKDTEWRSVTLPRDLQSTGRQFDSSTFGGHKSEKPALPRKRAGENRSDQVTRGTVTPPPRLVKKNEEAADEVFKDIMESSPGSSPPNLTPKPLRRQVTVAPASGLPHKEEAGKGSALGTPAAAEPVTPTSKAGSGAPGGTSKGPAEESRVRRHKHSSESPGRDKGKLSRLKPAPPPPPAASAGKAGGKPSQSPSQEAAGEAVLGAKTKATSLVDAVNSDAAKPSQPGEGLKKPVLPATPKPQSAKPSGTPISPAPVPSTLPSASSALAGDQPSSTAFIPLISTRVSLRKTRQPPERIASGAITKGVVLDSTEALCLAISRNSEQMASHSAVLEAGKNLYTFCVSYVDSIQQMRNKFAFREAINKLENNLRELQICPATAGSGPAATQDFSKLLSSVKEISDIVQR
Sequence (P11274 whole entry, further chain, the tested form may be a part): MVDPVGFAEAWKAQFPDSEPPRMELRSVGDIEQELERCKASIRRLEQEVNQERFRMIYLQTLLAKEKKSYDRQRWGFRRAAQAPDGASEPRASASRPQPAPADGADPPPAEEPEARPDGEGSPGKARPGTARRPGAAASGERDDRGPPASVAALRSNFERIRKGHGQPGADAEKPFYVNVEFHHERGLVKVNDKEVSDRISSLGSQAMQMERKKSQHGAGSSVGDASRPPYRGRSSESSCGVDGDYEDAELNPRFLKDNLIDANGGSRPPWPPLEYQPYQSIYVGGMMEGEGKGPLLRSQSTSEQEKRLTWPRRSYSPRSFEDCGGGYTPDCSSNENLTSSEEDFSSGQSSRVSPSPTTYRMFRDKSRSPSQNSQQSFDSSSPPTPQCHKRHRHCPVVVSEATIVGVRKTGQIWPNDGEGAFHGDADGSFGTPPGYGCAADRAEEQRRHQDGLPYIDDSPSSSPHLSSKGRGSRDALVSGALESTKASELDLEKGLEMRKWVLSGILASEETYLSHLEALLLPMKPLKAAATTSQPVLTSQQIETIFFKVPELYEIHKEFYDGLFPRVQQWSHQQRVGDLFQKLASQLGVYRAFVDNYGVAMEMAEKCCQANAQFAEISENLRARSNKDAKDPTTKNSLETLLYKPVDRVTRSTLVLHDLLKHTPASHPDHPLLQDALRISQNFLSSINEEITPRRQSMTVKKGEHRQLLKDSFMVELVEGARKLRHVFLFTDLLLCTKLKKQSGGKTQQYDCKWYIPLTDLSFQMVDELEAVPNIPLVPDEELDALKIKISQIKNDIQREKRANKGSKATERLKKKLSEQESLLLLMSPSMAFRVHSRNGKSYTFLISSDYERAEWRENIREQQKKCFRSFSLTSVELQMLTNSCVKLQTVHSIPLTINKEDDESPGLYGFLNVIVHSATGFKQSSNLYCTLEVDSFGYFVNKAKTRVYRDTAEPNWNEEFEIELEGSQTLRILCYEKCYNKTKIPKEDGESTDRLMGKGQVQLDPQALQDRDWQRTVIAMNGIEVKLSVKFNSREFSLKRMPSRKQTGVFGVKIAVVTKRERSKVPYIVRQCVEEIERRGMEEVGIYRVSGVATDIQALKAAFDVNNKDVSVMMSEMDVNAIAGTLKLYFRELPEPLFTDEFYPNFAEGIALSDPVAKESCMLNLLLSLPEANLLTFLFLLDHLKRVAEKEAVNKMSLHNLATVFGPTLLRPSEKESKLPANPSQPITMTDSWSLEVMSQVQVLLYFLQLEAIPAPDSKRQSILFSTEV
Test: Inhibition of BCR fused full length human recombinant N-terminal His-tagged ABL (2 to 1130 residues) expressed in baculovirus expression system using FL-peptide 2 substrate preincubated for 10 mins followed by substrate addition measured after 60 mins by mobility shift assay
pIC50: −log10 of the molar value.
QUANTITY MEASURED: pIC50

COMPOUND STRUCTURE STRING: CCN1CCN(Cc2ccc(NC(=O)COc3ccc(-c4ccc(NC(C)=O)nc4)cc3)cc2C(F)(F)F)CC1
TEST RESULT: 6.41

COMPOUND STRUCTURE STRING: CCN1CCN(Cc2ccc(NC(=O)COc3ccc(-c4ccccn4)cc3)cc2C(F)(F)F)CC1
TEST RESULT: < 5.00

COMPOUND STRUCTURE STRING: CCN1CCN(Cc2ccc(NC(=O)COc3ccc(-c4ccc(C(=O)NC)nc4)cc3)cc2C(F)(F)F)CC1
TEST RESULT: < 5.00

COMPOUND STRUCTURE STRING: O=C(COc1ccc(-c2cccnc2)cc1)Nc1ccc(CN2CCNCC2)c(C(F)(F)F)c1
TEST RESULT: < 5.00
